- assayed.system: T1, mouse common cytokine receptor γ-chain (IL-2Rγ) (mouse, UniProt P34902 23-263, limits assumed)
- T1 construct: Recombinant mouse IL-2Rγ protein; also called mo IL-2R; mouse IL-2R gamma
- T1 sequence (looked up): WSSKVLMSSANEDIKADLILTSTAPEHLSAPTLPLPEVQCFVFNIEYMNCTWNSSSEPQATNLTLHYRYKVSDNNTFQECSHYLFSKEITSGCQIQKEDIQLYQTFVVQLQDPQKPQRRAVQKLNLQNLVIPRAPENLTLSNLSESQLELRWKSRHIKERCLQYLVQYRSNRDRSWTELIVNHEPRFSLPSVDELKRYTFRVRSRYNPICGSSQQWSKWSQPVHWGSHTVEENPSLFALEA
- measurement.protocol: P.E. off-rate SPR
Param label: returns label 1 when koff < 0.01 s⁻¹, returns label 0 otherwise, including exact equality.

See these solved cases before continuing.
binder="FJ1427_P035MP07B03 (VHH, tested as periplasmic extract; also called Clone nr) VHH: EVQLVESGGGLVQAGGSLRLSCAASGRALSRLAMGWFRQAPGKEREFVVASSWGDDTFYADSVKGRFTFSRDNAKNTVYLQMNSLQPGDTAVYYCAAAPTSFATTAYSSSNSYAYWGQGTQVTVSS" assigned_label="label 0"
binder="FJ1427_P035MP07D06 (VHH, tested as periplasmic extract; also called Clone nr; 620) VHH: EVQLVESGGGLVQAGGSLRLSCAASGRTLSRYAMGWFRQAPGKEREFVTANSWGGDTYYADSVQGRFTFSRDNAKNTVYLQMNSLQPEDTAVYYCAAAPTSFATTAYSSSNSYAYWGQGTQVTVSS" assigned_label="label 0"
binder="FJ1427_P035MP07G10 (VHH, tested as periplasmic extract; also called Clone nr; 655) VHH: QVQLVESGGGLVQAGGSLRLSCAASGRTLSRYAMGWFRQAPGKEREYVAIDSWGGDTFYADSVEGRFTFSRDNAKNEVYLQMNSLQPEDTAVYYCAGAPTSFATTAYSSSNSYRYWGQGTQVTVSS" assigned_label="label 1"
binder="FJ1427_P035MP07H07 (VHH, tested as periplasmic extract; also called Clone nr) VHH: QVQLVESGGGLVQAGDSLRLSCAASGRTLSRYAMGWFRQAPGKEREFVAATSWGGDSYYADSVEGRFTFSRDNAKNAVYLQMNSLQPEDTAVYYCAAAPTSFATTAYSSSNSYANWGQGTQVTVSS" assigned_label="label 1"

Query: Input FJ1427_P035MP07H05 (VHH, tested as periplasmic extract; also called Clone nr) VHH: QVQLVESGGGLVQAGGSLRLSCAASGRTLSRYAMGWFRQAPGKEREFVAANSWGGDTYYTDSVEGRFTFSRDNAKNAVYLQMNSLQPGDTAVYYCAAAPTSFATTAYSSSNSYSYWGQGTQVTVSS ; condition: koff strictly below 0.01 s⁻¹. Does it hold?
Reply: label 0

Query: Input FJ1427_P035MP07A09 (VHH, tested as periplasmic extract; also called Clone nr) VHH: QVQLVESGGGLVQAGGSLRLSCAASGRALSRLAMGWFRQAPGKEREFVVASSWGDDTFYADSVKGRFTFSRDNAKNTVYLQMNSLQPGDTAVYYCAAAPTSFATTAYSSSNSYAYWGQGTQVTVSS ; condition: koff strictly below 0.01 s⁻¹. Does it hold?
Reply: label 0

Query: Input FJ1427_P035MP07A03 (VHH, tested as periplasmic extract; also called Clone nr) VHH: EVQLVESGGGLVQAGGSLRLSCAASGRTLSRYAMGWFRQAPGKEREYVAIDSWGGDTFYADSVEGRFTFSRDNAKNEVYLQMNSLQPEDTAVYYCAGAPTSFATTAYSSSNSYRYWGQGTQVTVSS ; condition: koff strictly below 0.01 s⁻¹. Does it hold?
Reply: label 1

Query: Input FJ1427_P035MP07G07 (VHH, tested as periplasmic extract; also called Clone nr) VHH: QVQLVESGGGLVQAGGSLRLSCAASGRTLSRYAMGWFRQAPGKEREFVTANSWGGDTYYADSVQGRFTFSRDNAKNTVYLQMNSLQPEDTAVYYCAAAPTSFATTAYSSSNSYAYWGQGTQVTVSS ; condition: koff strictly below 0.01 s⁻¹. Does it hold?
Reply: label 0
